- experimentalTarget: human TLR8 (Homo sapiens, UniProt Q9NR97)
- Construct: host or cells: HEK293 (HEK-Blue hTLR8)
- Sequence (Q9NR97 27-1041): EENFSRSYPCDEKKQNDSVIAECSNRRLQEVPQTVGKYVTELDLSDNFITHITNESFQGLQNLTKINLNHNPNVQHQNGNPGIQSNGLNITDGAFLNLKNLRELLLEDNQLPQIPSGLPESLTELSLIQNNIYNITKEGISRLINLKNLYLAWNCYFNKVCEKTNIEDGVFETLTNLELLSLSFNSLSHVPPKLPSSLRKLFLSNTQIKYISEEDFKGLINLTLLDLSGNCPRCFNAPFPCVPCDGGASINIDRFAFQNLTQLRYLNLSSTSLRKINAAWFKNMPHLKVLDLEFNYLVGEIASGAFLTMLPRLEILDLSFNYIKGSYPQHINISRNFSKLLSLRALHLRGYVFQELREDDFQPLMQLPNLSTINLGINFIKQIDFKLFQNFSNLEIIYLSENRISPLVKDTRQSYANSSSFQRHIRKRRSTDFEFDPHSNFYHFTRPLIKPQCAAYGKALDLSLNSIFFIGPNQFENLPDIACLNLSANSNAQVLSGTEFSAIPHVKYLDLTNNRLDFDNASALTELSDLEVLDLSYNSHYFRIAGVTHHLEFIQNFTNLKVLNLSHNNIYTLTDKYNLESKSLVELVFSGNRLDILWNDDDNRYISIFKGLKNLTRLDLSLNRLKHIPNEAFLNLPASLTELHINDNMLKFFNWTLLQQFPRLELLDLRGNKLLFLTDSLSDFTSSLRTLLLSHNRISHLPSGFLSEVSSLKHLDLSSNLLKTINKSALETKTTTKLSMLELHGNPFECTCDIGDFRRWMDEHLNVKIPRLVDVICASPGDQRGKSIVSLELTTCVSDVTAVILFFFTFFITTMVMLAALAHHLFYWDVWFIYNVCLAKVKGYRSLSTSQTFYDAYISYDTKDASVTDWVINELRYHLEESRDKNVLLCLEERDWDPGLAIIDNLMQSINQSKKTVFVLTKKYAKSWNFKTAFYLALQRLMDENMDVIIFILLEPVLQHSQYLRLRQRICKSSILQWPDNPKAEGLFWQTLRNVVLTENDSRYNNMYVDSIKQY
- assayProcedure: HEK293-Blue-hTLR-8 cells assay (SEAP reporter, R848 stimulation)
- Type: cell-based
- measurementContext: HEK293-Blue-hTLR8 cells, R848, 20 hrs; read-out: HEK/hTLR8 IC50
pIC50: −log10 of the molar value.

{"compoundStructure": "C[C@@H]1CN(c2ccc(C#N)n3ncc(F)c23)C[C@H](CN2CCN(c3ccc([C@@H]4CNCCO4)cc3)CC2)O1", "pIC50": 7.57}
{"compoundStructure": "C[C@@H]1CN(c2ccc(C#N)c3nccnc23)C[C@H](CN2CCN(c3ccnc(N4C[C@@H](N)[C@@H](F)C4)n3)CC2)O1", "pIC50": 9.00}
{"compoundStructure": "[2H]c1ccc2c(N3C[C@H](CN4CCN(c5ccc(N6CC(C)(N)C6)nc5)CC4)O[C@H](C)C3)ccc(C#N)c2n1", "pIC50": 7.80}
{"compoundStructure": "Cc1cc(N2CCN(C[C@H]3CN(c4ccc(C#N)c5ncccc45)C[C@@H](C)O3)CC2)nc(N2CC[C@@H](F)[C@@H](N)C2)n1", "pIC50": 8.52}
{"compoundStructure": "C[C@@H]1CN(c2ccc(C#N)c3ncccc23)C[C@H](CN2CCN(c3nc(N4CCNCC4)ncc3F)CC2)O1", "pIC50": 8.40}
{"compoundStructure": "Cc1cc(N2CCN(C[C@H]3CN(c4ccc(C#N)c5ncccc45)C[C@@H](C)O3)CC2)nc(N2CC[C@@H](N)[C@@H](F)C2)n1", "pIC50": 9.00}
